These data points were gathered from patent US20050228180A1.

# Target under test: α1B adrenoceptor (Rattus norvegicus, UniProt P15823)
# Sequence (P15823 1-515): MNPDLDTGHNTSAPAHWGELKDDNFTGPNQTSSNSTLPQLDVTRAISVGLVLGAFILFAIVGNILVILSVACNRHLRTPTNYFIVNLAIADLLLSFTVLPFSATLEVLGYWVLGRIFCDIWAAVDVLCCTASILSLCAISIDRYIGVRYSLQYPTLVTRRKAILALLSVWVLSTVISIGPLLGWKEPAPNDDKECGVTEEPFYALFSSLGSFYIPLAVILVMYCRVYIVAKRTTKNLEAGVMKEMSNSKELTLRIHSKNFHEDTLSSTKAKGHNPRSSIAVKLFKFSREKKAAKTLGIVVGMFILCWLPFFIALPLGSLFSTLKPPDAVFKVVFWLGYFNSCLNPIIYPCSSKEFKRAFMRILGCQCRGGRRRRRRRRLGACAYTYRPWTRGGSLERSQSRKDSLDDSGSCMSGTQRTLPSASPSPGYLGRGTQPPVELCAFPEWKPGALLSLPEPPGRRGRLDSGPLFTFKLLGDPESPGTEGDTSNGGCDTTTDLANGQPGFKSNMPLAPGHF
Where a name gives a salt, the structure may show the parent alone.
Endpoint: Ki

>>> value_measured("CC(C)Oc1ccccc1N1CCN(CCCN2C(=O)C3CC=CCC3C2=O)CC1=O (stereo not shown)")
"> 15000 nM"
>>> value_measured("CCOc1ccccc1N1CCN(CCN2C(=O)C3CC=CCC3C2=O)CC1.Cl (stereo not shown) [Compound No. 15, hydrochloride]")
"346 nM"
>>> value_measured("COc1ccccc1NCCNCCCN1C(=O)CCCC1=O [Compound No. 56, hydrochloride]")
"992 nM"
>>> value_measured("CC(C)Oc1ccccc1N1CCN(CCCN2C(=O)C3CC(O)C(O)CC3C2=O)CC1 (stereo not shown)")
"85 nM"

* * *

Counter-ions that a name gives are not always drawn.
Endpoint: melting point

>>> value_measured("CC(=O)OC1C=CCC2C(=O)N(CCCN3CCN(c4ccccc4OC(C)C)CC3)C(=O)C12 (stereo not shown) (as salt: hydrochloride)")
"224 to 227 °C"
>>> value_measured("CC(=O)OC1C=CC(OC(C)=O)C2C(=O)N(CCCN3CCN(c4ccccc4OC(C)C)CC3)C(=O)C12.Cl (stereo not shown)")
"176 to 177 °C"
>>> value_measured("CC(C)Oc1ccccc1N1CCN(CCCN2C(=O)C3CC=CC(O)C3C2=O)CC1.Cl (stereo not shown)")
"186 to 190 °C"
>>> value_measured("CCOc1ccccc1N1CC[N+]([O-])(CCCN2C(=O)C3CC=CCC3C2=O)CC1 (stereo not shown)")
"75 to 80 °C"

* * *

# Target under test: α1A adrenoceptor (prostate) (Rattus norvegicus, UniProt P43140)
# Construct: from tissue; host or cells: isolated prostate tissue
# Sequence (P43140 whole entry): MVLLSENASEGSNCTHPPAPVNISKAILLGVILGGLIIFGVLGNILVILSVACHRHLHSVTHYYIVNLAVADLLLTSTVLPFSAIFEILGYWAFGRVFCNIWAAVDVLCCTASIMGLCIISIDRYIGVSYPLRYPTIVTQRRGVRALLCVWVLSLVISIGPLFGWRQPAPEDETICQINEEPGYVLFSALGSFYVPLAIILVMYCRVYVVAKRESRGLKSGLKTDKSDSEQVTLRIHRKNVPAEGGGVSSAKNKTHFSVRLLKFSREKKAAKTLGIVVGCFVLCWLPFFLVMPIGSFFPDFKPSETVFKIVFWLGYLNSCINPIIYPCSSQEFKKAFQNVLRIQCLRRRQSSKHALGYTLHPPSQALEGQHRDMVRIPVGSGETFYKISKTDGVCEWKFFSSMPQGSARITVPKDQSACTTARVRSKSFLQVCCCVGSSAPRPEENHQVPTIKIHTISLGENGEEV
# Test details: In vitro functional assay, isolated prostate, phenylepinephrine contraction
# Type: cell-based
# Recorded conditions: functional, from pKB
Structures can show the parent of a compound that is named as a salt.
Please respond with Yes when measured Selectivity α1D/α1A is strictly beneath 3, and with No in all other cases.

>>> category("Cl.O=C1C2CC=CCC2C(=O)N1CCCN1CCN(c2ccccc2OCC(F)(F)F)CC1 (stereo not shown)")
"Yes"
>>> category("CC(C)Oc1ccccc1N1CCN(CCCN2C(=O)C3CCCC(O)C3C2=O)CC1.Cl (stereo not shown)")
"No"
>>> category("CC(C)Oc1ccccc1N1CCN(CCCN2C(=O)C3CC=CC(O)C3C2=O)CC1.Cl (stereo not shown)")
"No"
>>> category("O=C1C2CC=CCC2C(=O)N1CC(O)CN1CCN(c2ccccc2OCC(F)(F)F)CC1 (stereo not shown) [Compound No. 31, hydrochloride]")
"No"
>>> category("CC(C)Oc1ccccc1N1CCN(CC(O)CN2C(=O)C3CC4OC4CC3C2=O)CC1 (stereo not shown)")
"No"
>>> category("Cl.O=C1CCCC(=O)N1CCCN1CCN(c2ccccc2O)CC1")
"Yes"
>>> category("CC(C)Oc1ccccc1[N+]1([O-])CC[N+]([O-])(CCCN2C(=O)C3CC=CCC3C2=O)CC1 (stereo not shown)")
"No"
>>> category("CCOc1ccccc1N1CCN(CC(O)CN2C(=O)C3CC=CCC3C2=O)CC1 (stereo not shown) [Compound No. 11, hydrochloride]")
"Yes"
>>> category("CCOc1ccccc1N1CC[N+]([O-])(CCCN2C(=O)C3CC=CCC3C2=O)CC1 (stereo not shown)")
"No"
>>> category("CCOc1ccccc1N1CCN(CCCN2C(=O)C3CC(O)C(Cl)CC3C2=O)CC1.Cl (stereo not shown)")
"No"
>>> category("O=C1C2CC3OC3CC2C(=O)N1CC(O)CN1CCN(c2ccccc2OCC(F)(F)F)CC1 (stereo not shown)")
"No"
>>> category("O=C1C2CC3OC3CC2C(=O)N1CCCN1CCN(c2ccccc2OCC(F)(F)F)CC1 (stereo not shown)")
"No"
>>> category("CC(C)Oc1ccccc1N1CCN(CC(O)CN2C(=O)CCCC2=O)CC1.Cl (stereo not shown)")
"No"
>>> category("Cl.O=C1C2CCC(O)CC2C(=O)N1CCCN1CCN(c2ccccc2OCC(F)(F)F)CC1 (stereo not shown)")
"Yes"
>>> category("CC(C)Oc1ccccc1N1CCN(CCCN2C(=O)C3CCC(O)CC3C2=O)CC1 (stereo not shown)")
"Yes"
>>> category("CC(C)Oc1ccccc1N1CC[N+]([O-])(CCCN2C(=O)C3CC=CCC3C2=O)CC1 (stereo not shown)")
"No"

* * *

Catalogue of log10(Kb) readings, one per entry.
# Target under test: α1A adrenoceptor (prostate) (Rattus norvegicus, UniProt P43140)
# Construct: from tissue; host or cells: isolated prostate tissue
# Test details: In vitro functional assay, isolated prostate, phenylepinephrine contraction
# Format: cell-based
# Recorded conditions: rat prostate, phenylepinephrine; read-out: α Adrenoceptor Subtype (pKB) α1A (converted)
Endpoint: log10(Kb) (log10 of the value in nM)

>>> value_measured("O=C1C2CC3OC3CC2C(=O)N1CCCN1CCN(c2ccccc2OCC(F)(F)F)CC1 (centres unmarked)")
-0.17
>>> value_measured("CC(C)Oc1ccccc1N1CC[N+]([O-])(CCCN2C(=O)C3CC=CCC3C2=O)CC1 (centres unmarked)")
0.62
>>> value_measured("COc1ccccc1N1CCN(CC(O)CN2C(=O)C3CC=CCC3C2=O)CC1.Cl (centres unmarked) [compound 06, hydrochloride]")
0.82
>>> value_measured("O=C1C2CC3OC3CC2C(=O)N1CC(O)CN1CCN(c2ccccc2OCC(F)(F)F)CC1 (centres unmarked)")
0.10
>>> value_measured("CC(C)Oc1ccccc1N1CCN(CC(O)CN2C(=O)C3CC4OC4CC3C2=O)CC1 (centres unmarked)")
0.22
>>> value_measured("CC(C)Oc1ccccc1N1CCN(CCCN2C(=O)C3CC4OC4CC3C2=O)CC1 (centres unmarked)")
-0.10
>>> value_measured("CCOc1ccccc1N1CC[N+]([O-])(CCCN2C(=O)C3CC=CCC3C2=O)CC1 (centres unmarked)")
0.39
>>> value_measured("CC(C)Oc1ccccc1N1CCN(CCCN2C(=O)C3CCCC(O)C3C2=O)CC1.Cl (centres unmarked) [Compound No. 60, hydrochloride]")
-0.44

* * *

pKi: −log10 of the molar value. Structures can show the parent of a compound that is named as a salt.
A short record of pKi observed with α1B adrenoceptor (Rattus norvegicus) follows.
Endpoint: pKi

>>> value_measured("CCOc1ccc(O)cc1N1CCN(CCCN2C(=O)C3CC=CCC3C2=O)CC1 (stereo not shown) [Compound No. 24, hydrochloride]")
6.31
>>> value_measured("Cl.O=C1C2CCC(O)CC2C(=O)N1CCCN1CCN(c2ccccc2OCC(F)(F)F)CC1 (stereo not shown) [Compound No. 33, hydrochloride]")
7.47
>>> value_measured("CCOc1ccccc1N1CCN(CCCN2C(=O)C3CC(O)C(O)CC3C2=O)CC1 (stereo not shown) [Compound No. 12]")
6.93
>>> value_measured("CC(C)Oc1ccccc1N1CCN(CCCN2C(=O)C3CC(O)C(Cl)CC3C2=O)CC1.Cl (stereo not shown) [Compound No. 28, hydrochloride]")
7.39

* * *

# Target under test: α1D adrenoceptor (aorta) (Rattus norvegicus, UniProt P23944)
# Construct: Isolated tissues were mounted in organ bath containing Krebs Henseleit buffer; from tissue; host or cells: isolated rat aorta
# Sequence (P23944 whole entry): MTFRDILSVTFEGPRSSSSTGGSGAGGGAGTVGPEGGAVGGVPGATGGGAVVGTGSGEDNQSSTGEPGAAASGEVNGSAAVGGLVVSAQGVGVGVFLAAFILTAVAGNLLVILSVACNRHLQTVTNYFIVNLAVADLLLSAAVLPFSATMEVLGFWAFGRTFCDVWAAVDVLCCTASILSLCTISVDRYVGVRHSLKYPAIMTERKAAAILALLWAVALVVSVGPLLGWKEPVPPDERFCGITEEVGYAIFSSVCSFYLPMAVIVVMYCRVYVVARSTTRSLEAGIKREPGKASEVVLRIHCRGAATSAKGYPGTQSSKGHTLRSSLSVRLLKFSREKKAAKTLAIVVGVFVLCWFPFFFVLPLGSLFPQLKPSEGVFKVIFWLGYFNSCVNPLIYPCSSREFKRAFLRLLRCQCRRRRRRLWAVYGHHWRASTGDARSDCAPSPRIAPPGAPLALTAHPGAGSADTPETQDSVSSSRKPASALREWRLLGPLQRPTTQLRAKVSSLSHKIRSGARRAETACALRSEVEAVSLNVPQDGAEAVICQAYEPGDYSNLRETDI
# Test details: In vitro functional assay, isolated aorta, norepinephrine contraction
# Assay type: cell-based
# Recorded conditions: read-out: α Adrenoceptor Subtype (pKB) α1D (converted)
Just a reminder that ties go to -1: only Kb strictly below 6 nM counts as 1.

>>> category("CCOc1ccccc1N1CCN(CCCN2C(=O)C3CCC(O)CC3C2=O)CC1.Cl (stereo not shown) [Compound No. 18, hydrochloride]")
1
>>> category("CC(C)Oc1ccccc1N1CCN(CCCN2C(=O)C3CCCC(O)C3C2=O)CC1.Cl (stereo not shown) [Compound No. 60, hydrochloride]")
-1
>>> category("CC(C)Oc1cc(N)ccc1N1CCN(CCCN2C(=O)C3CC=CCC3C2=O)CC1.Cl (stereo not shown) [Compound No. 26, hydrochloride]")
-1
>>> category("CC(C)Oc1ccccc1[N+]1([O-])CC[N+]([O-])(CCCN2C(=O)C3CC=CCC3C2=O)CC1 (stereo not shown)")
-1
>>> category("O=C1CCCC(=O)N1CCCN1CCN(c2ccccc2OCC(F)(F)F)CC1")
1
>>> category("CC(C)Oc1ccccc1N1CCN(CCCN2C(=O)C3CC4OC4CC3C2=O)CC1 (stereo not shown)")
1
>>> category("Cl.O=C1C2CCC(O)CC2C(=O)N1CCCN1CCN(c2ccccc2OCC(F)(F)F)CC1 (stereo not shown) [Compound No. 33, hydrochloride]")
1
